Target: Adrenergic β2 (Homo sapiens, UniProt P07550)
Construct: Adherent H292 cells are removed from tissue culture flasks by treatment with Accutase™ cell detachment solution; endogenous in cells; host or cells: H292 cells
Sequence (P07550 whole entry): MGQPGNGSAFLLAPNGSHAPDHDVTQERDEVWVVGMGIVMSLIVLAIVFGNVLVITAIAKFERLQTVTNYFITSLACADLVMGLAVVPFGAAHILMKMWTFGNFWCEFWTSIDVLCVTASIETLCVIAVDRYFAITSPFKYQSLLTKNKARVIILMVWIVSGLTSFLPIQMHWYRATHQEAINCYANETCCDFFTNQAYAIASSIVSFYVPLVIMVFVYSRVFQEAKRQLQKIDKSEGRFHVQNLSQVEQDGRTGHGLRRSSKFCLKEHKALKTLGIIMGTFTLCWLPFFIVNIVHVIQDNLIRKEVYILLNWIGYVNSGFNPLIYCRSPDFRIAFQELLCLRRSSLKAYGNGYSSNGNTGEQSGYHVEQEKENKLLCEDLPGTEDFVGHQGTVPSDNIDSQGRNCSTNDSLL
Assay: Adrenergic β2 mediated cAMP production in H292 cells (AlphaScreen), concentration response
Assay type: cell-based
Settings: fraction relative to the maximum activity determined for formoterol
Consider the following molecules and their measured β2 Intrinsic Activity readings.

- molecule: "Cc1ccccc1CN(CCNCCc1ccc(O)c2c1OCC(=O)N2)C(=O)CCOCCc1cccc(CN2CCC3(CC2)CN(C(=O)c2csc(C(C)C)n2)CCO3)c1F"
  β2 Intrinsic Activity: 1.1
- molecule: "CCCN(CCNCCc1ccc(O)c2c1OCC(=O)N2)C(=O)CCOCCc1cccc(CN2CCC3(CC2)CN(C(=O)c2csc(C(C)C)n2)CCO3)c1Cl [Example 29, ditrifluoroacetate]"
  β2 Intrinsic Activity: 0.9
- molecule: "CC(C)c1nc(C(=O)N2CCOC3(CCN(Cc4cccc(CCCCOCCC(=O)N(CCNCCc5ccc(O)c6c5OCC(=O)N6)C5CCCCC5)c4)CC3)C2)cs1 [Example 58, ditrifluoroacetate]"
  β2 Intrinsic Activity: 0.9
- molecule: "CCCC[C@@H](C)N(CCNCCc1ccc(O)c2c1OCC(=O)N2)C(=O)CCOCCc1ccc(CCN2CCC3(CC2)CN(C(=O)c2csc(C)n2)CCO3)cc1 [Example 6, ditrifluoroacetate]"
  β2 Intrinsic Activity: 1.0
- molecule: "CCCCN(CCNCCc1ccc(O)c2c1OCC(=O)N2)C(=O)CCOCCc1cccc(CN2CCC3(CC2)CN(C(=O)c2csc(CC)n2)CCO3)c1Cl [Example 32, ditrifluoroacetate]"
  β2 Intrinsic Activity: 0.9

====

Assay system human muscarinic acetylcholine M3 receptor (Homo sapiens, UniProt P20309); read-out recorded as pIC50.
pIC50: −log10 of the molar value.

- compound: "Cc1nc(C(=O)N2CCOC3(CCN(CCc4ccc(CCOCCC(=O)N(CCNCCc5ccc(O)c6c5OCC(=O)N6)C5CCCCCC5)cc4)CC3)C2)cs1 [Example 5, ditrifluoroacetate]"
  pIC50: 9.70
- compound: "CC(C)c1nc(C(=O)N2CCOC3(CCN(Cc4cccc(CCCCOCCC(=O)N(CCNCCc5ccc(O)c6c5OCC(=O)N6)C5CCCCC5)c4)CC3)C2)cs1 [Example 58, ditrifluoroacetate]"
  pIC50: 10.20
- compound: "CCCCN(CCNCCc1ccc(O)c2c1OCC(=O)N2)C(=O)CCOCCc1ccc(CCN2CCC3(CC2)CN(C(=O)c2csc(C(C)C)n2)CCO3)cc1 [Example 4, ditrifluoroacetate]"
  pIC50: 9.10

====

Assay system human muscarinic acetylcholine M3 receptor (Homo sapiens, UniProt P20309); read-out recorded as IC50.
Where a name gives a salt, the structure may show the parent alone.
measured_parameter: IC50 (nM)

- compound: "CC(C)c1nc(C(=O)N2CCOC3(CCN(Cc4cccc(CCOCCC(=O)N(CCNCCc5ccc(O)c6c5OCC(=O)N6)C5CCCCCC5)c4F)CC3)C2)cs1 [Example 7, ditrifluoroacetate]"
  system_under_test: "human muscarinic acetylcholine M3 receptor (Homo sapiens, UniProt P20309)"
  measured_parameter: "IC50"
  measured_result: 0.631
- compound: "COCCN(CCNCCc1ccc(O)c2c1OCC(=O)N2)C(=O)CCOCCc1cccc(CN2CCC3(CC2)CN(C(=O)c2csc(C(C)C)n2)CCO3)c1Cl [Example 70, ditrifluoroacetate]"
  system_under_test: "human muscarinic acetylcholine M3 receptor (Homo sapiens, UniProt P20309)"
  measured_parameter: "IC50"
  measured_result: 0.126
- compound: "CCN(CCNCCc1ccc(O)c2c1OCC(=O)N2)C(=O)CCOCCc1cccc(CCN2CC3(C2)CN(C(=O)c2csc(C(C)C)n2)CCO3)c1 [Example 177, trifluoroacetate salt]"
  system_under_test: "human muscarinic acetylcholine M3 receptor (Homo sapiens, UniProt P20309)"
  measured_parameter: "IC50"
  measured_result: 1.26

====

Molecular target: Adrenergic β2 (Homo sapiens)
Construct: Adherent H292 cells are removed from tissue culture flasks by treatment with Accutase™ cell detachment solution; endogenous in cells; host or cells: H292 cells
Test: Adrenergic β2 mediated cAMP production in H292 cells (AlphaScreen), concentration response
Type: cell-based
Conditions: 60 min, 300 μM rolipram, read-out: β2 pEC50 (converted)
measured_parameter: EC50 (nM)

- molecule: "CC(C)c1nc(C(=O)N2CCOC3(CCN(Cc4cccc(CCOCCC(=O)N(CCNCCc5ccc(O)c6c5OCC(=O)N6)CCC(C)(C)C)c4F)CC3)C2)cs1 [Example 17, ditrifluoroacetate]"
  system_under_test: "Adrenergic β2 (Homo sapiens)"
  measured_parameter: "EC50"
  measured_result: 50.1
- molecule: "CC(C)c1nc(C(=O)N2CCOC3(CCN(Cc4cccc(CCOCCC(=O)N(CCNCCc5ccc(O)c6c5OCC(=O)N6)CCC(F)(F)F)c4F)CC3)C2)cs1 [Example 20, ditrifluoroacetate]"
  system_under_test: "Adrenergic β2 (Homo sapiens)"
  measured_parameter: "EC50"
  measured_result: 79.4
- molecule: "CC(C)c1nc(C(=O)N2CCOC3(CCN(Cc4cccc(CCCOCCC(=O)N(CCNCCc5ccc(O)c6c5OCC(=O)N6)C5CCCCC5)c4)CC3)C2)cs1 [Example 57, ditrifluoroacetate]"
  system_under_test: "Adrenergic β2 (Homo sapiens)"
  measured_parameter: "EC50"
  measured_result: 316

====

pIC50: −log10 of the molar value. Counter-ions that a name gives are not always drawn.
Assay system human muscarinic acetylcholine M3 receptor (Homo sapiens); read-out recorded as pIC50.
measured_parameter: pIC50

- compound: "Cc1ccoc1C(=O)N1CCOC2(CCN(Cc3cccc(CCOCCC(=O)N(CCNCCc4ccc(O)c5c4OCC(=O)N5)C4CCCCC4)c3)CC2)C1 [Example 159]"
  measured_result: 8.90
- compound: "CCCN(CCNCCc1ccc(O)c2[nH]c(=O)sc12)C(=O)CCOCCc1ccc(CCN2CCC3(CC2)CN(C(=O)c2csc(CC)n2)CCO3)cc1 [Example 3, ditrifluoroacetate]"
  measured_result: 9.00
- compound: "CCN(CCNCCc1ccc(O)c2c1OCC(=O)N2)C(=O)CCOCCc1cccc(CN2CCC3(CC2)CN(C(=O)c2csc(C(C)C)c2)CCO3)c1F [Example 74, ditrifluoroacetate]"
  measured_result: 9.70
- compound: "CC(C)c1nc(C(=O)N2CCOC3(CN(CCc4cccc(CCOCCC(=O)N(CCNCCc5ccc(O)c6c5OCC(=O)N6)C5CCCCC5)c4)C3)C2)cs1 [Example 176, trifluoroacetate salt]"
  measured_result: 8.60
- compound: "CCCCN(CCCNCCc1ccc(O)c2c1OCC(=O)N2)C(=O)CCOCCc1cccc(CN2CCC3(CC2)CN(C(=O)c2csc(CC)n2)CCO3)c1Cl [Example 80]"
  measured_result: 9.20
- compound: "CCN(CCNCCc1ccc(O)c2[nH]c(=O)sc12)C(=O)CCOCCc1cc(Cl)cc(CN2CCC3(CC2)CN(C(=O)c2csc(C(C)C)n2)CCO3)c1 [Example 50, ditrifluoroacetate]"
  measured_result: 6.10

====

Target: Adrenergic β2 (Homo sapiens, UniProt P07550)
Construct: Adherent H292 cells are removed from tissue culture flasks by treatment with Accutase™ cell detachment solution; endogenous in cells; host or cells: H292 cells
Experiment: Adrenergic β2 mediated cAMP production in H292 cells, single concentration 1 μM
Type: cell-based
Conditions: NCI-H292, 1 μM compound, cAMP as percentage of the maximum response generated by 1E-07M formoterol, read-out: β2 % effect @1 uM
Consider the following compounds and their measured percent of formoterol maximum response at 1 µM readings.
measured_parameter: percent of formoterol maximum response at 1 µM (%)

- compound: "O=C1COc2c(CCNCCN(C(=O)CCOCCc3cccc(CN4CCC5(CC4)CN(C(=O)[C@@H]4C[C@H]4c4ccccc4)CCO5)c3)C3CCCCC3)ccc(O)c2N1 [Example 167]"
  units_of_measure: "%"
  measured_result: 105
- compound: "CC(C)c1cc(C(=O)N2CCOC3(CCN(Cc4cccc(CCOCCC(=O)N(CCNCCc5ccc(O)c6c5OCC(=O)N6)C5CCCCC5)c4)CC3)C2)no1 [Example 147]"
  units_of_measure: "%"
  measured_result: 107
- compound: "O=C1COc2c(CCNCCN(C(=O)CCOCCc3cccc(CN4CCC5(CC4)CN(C(=O)Cn4cnc6ccccc64)CCO5)c3)C3CCCCC3)ccc(O)c2N1 [Example 125]"
  units_of_measure: "%"
  measured_result: 114
- compound: "O=C1COc2c(CCNCCN(C(=O)CCOCCc3cccc(CN4CCC5(CC4)CN(C(=O)CCOc4ccccc4)CCO5)c3)C3CCCCC3)ccc(O)c2N1 [Example 165]"
  units_of_measure: "%"
  measured_result: 99
- compound: "O=C1COc2c(CCNCCN(C(=O)CCOCCc3cccc(CN4CCC5(CC4)CN(C(=O)Cc4ccccc4F)CCO5)c3)C3CCCCC3)ccc(O)c2N1 [Example 169]"
  units_of_measure: "%"
  measured_result: 102
- compound: "O=C1COc2c(CCNCCN(C(=O)CCOCCc3cccc(CN4CCC5(CC4)CN(C(=O)c4ccc(-n6ccnc6)cc4)CCO5)c3)C3CCCCC3)ccc(O)c2N1 [Example 135]"
  units_of_measure: "%"
  measured_result: 86
- compound: "COC(C(=O)N1CCOC2(CCN(Cc3cccc(CCOCCC(=O)N(CCNCCc4ccc(O)c5c4OCC(=O)N5)C4CCCCC4)c3)CC2)C1)c1ccccc1 (stereo not shown) [Example 171]"
  units_of_measure: "%"
  measured_result: 94
- compound: "O=C1COc2c(CCNCCN(C(=O)CCOCCc3cccc(CN4CCC5(CC4)CN(C(=O)Cc4ccsc4)CCO5)c3)C3CCCCC3)ccc(O)c2N1 [Example 109]"
  units_of_measure: "%"
  measured_result: 98
- compound: "Cc1ccn2cc(C(=O)N3CCOC4(CCN(Cc5cccc(CCOCCC(=O)N(CCNCCc6ccc(O)c7c6OCC(=O)N7)C6CCCCC6)c5)CC4)C3)nc2c1 [Example 150]"
  units_of_measure: "%"
  measured_result: 104
- compound: "O=C1COc2c(CCNCCN(C(=O)CCOCCc3cccc(CN4CCC5(CC4)CN(C(=O)c4[nH]nc6c4CCCC6)CCO5)c3)C3CCCCC3)ccc(O)c2N1 [Example 123]"
  units_of_measure: "%"
  measured_result: 97
